Molecular target: DGKζ (Homo sapiens (Human), UniProt Q13574)
Sequence (Q13574 whole entry): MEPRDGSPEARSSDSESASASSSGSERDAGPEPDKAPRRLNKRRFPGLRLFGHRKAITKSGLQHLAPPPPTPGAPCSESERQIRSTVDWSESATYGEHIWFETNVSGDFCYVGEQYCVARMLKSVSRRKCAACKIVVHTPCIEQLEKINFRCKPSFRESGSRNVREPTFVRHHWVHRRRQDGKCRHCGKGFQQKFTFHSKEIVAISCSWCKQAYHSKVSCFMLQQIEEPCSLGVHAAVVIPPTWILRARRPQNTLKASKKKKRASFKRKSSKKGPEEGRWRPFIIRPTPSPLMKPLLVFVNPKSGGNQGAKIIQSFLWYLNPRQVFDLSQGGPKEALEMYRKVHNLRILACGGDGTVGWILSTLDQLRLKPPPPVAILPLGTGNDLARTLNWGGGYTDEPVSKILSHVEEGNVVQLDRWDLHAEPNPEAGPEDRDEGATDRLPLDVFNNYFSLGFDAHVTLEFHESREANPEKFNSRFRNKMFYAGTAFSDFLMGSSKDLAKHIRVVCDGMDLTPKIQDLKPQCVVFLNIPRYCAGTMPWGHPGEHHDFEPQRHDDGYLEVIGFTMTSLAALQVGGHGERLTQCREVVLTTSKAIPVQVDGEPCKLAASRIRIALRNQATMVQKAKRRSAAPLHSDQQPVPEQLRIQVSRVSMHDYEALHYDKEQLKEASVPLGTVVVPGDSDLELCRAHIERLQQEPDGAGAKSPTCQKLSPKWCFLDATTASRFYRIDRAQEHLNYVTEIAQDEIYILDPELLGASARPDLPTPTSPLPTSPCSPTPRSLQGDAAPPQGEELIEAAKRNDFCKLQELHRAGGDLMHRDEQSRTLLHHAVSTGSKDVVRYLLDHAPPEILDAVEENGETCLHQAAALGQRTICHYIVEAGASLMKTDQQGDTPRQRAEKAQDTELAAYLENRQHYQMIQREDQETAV
Experiment: In vitro DGKζ inhibition assay (ADP-Glo)
Conditions: His-tagged human recombinant enzyme, 0.4 nM DGK, 30 μM ATP, 20 μM DLG, 90 minute incubation
Measured IC50 of individual entries

Field: example entries. Status: answers known.
COMPOUND	IC50
Cc1nc2c(N3C[C@@H](C)N(C(c4ccc(C(F)F)c(F)c4)C4CC(F)(F)C4)C[C@@H]3C)nc3nncn3c2n1C[C@@H]1CCCO1 (stereo partly shown)	≤ 20 nM
CCn1ccc2c1c(N1C[C@@H](C)N(C(c3ccc(F)cc3)c3ccc(F)cc3)C[C@@H]1C)nc1nncn12	> 2000 nM
COc1ccc([C@H](C(C)C)N2C[C@H](C)N(c3nc4nncn4c4c3nc(C)n4C[C@@H]3CCCO3)C[C@H]2C)cc1	≤ 20 nM
C[C@@H]1CN(c2nc3nncn3c3ccsc23)[C@@H](C)CN1C(c1ccc(F)cc1)c1ccc(F)cc1	200 to 2000 nM
CC[C@@H]1CN(c2nc3nncn3c3c2ncn3CCN(C)C)[C@@H](C)CN1C(c1ccc(F)cc1)c1ccc(F)cc1	≤ 20 nM

# input compound: "CC[C@@H]1CN(c2nc3nncn3c3c2nc(C)n3C[C@@H]2CCCO2)[C@@H](C)CN1[C@@H](c1ccc(C(F)(F)F)cc1)C(C)C" ; wanted: its IC50
≤ 20 nM

Lookup "C[C@@H]1CN(c2nc3nncn3c3c2nnn3C[C@@H]2CCCO2)[C@@H](C)CN1C(c1ccc(Br)cc1)c1ccc(Br)cc1"
≤ 20 nM

Lookup "Cc1nc2c(N3C[C@@H](C)N([C@@H](c4ccc(OC(F)F)cc4F)C(C)C)C[C@@H]3C)nc3nncn3c2n1C[C@@H]1CCCO1"
≤ 20 nM

Lookup Cc1nc2c(N3C[C@@H](C)N(C(c4ccc(Cl)cc4)c4ccc(F)c(Cl)c4)C[C@@H]3C)nc3nncn3c2n1C[C@@H]1CCCO1 (single isomer, unassigned)
≤ 20 nM

Lookup C[C@@H]1CN(c2nc3nncn3c3c2ncn3CCN(C)C)[C@@H](C)CN1C(c1ccc(Cl)c(F)c1)C1CC(F)(F)C1 (stereo partly shown)
≤ 20 nM

Lookup "CC[C@@H]1CN(c2nc3nncn3c3c2nnn3C[C@H]2CCCO2)[C@@H](C)CN1C(c1ccc(F)cc1)c1ccc(F)cc1"
≤ 20 nM

Lookup "COc1cccc([C@H](C(C)C)N2C[C@H](C)N(c3nc4nncn4c4c3nc(C)n4C[C@@H]3CCCO3)C[C@H]2C)c1"
≤ 20 nM

Lookup "Cc1nc2c(N3C[C@@H](C)N([C@@H](c4ccc(Br)cc4)C(C)C)C[C@@H]3C)nc3nncn3c2n1C[C@@H]1CCCO1"
≤ 20 nM
